- assayed_system: FGFR1 (Homo sapiens)
- Construct: made in house; host or cells: E. coli host derived from BL21, infected with T7 phage
- test_method_notes: Kinase binding assay (Kd), FGFR1
- experimental_context: 11-point 3-fold dilution, qPCR readout
readout_kind: Kd (nM)

(I) C=CC(=O)Nc1cccc2c1ccn2-c1nc(Nc2ccc(N3CCS(=N)(=O)CC3)cc2)ncc1Cl
(II) Cc1cnc(Nc2ccc(S(=N)(=O)C3CC3)cc2)nc1-c1c[nH]c2ccccc12 (stereo not shown)
IN: Select one: I or II . Criterion: greater recorded Kd. Answer format: the label of the selected item.
OUT: I
(I: 51 nM, II: 10 nM)

(a) Cc1cnc(Nc2ccc(N=S(C)(C)=O)cc2)nc1-n1ccc2ccccc21
(b) COc1cc(N=S2(=O)CCN(C(C)C)CC2)ccc1Nc1ncc(Cl)c(-c2c[nH]c3ccccc23)n1
IN: Between item a and item b , which reported Kd is smaller? Answer format: the label of the selected item.
OUT: b
(b: 80 nM, a: 190 nM)

* * *

- assayed_system: FGFR1 (Homo sapiens, UniProt P11362)
- Construct: made in house; host or cells: E. coli host derived from BL21, infected with T7 phage
- Sequence (P11362 22-822): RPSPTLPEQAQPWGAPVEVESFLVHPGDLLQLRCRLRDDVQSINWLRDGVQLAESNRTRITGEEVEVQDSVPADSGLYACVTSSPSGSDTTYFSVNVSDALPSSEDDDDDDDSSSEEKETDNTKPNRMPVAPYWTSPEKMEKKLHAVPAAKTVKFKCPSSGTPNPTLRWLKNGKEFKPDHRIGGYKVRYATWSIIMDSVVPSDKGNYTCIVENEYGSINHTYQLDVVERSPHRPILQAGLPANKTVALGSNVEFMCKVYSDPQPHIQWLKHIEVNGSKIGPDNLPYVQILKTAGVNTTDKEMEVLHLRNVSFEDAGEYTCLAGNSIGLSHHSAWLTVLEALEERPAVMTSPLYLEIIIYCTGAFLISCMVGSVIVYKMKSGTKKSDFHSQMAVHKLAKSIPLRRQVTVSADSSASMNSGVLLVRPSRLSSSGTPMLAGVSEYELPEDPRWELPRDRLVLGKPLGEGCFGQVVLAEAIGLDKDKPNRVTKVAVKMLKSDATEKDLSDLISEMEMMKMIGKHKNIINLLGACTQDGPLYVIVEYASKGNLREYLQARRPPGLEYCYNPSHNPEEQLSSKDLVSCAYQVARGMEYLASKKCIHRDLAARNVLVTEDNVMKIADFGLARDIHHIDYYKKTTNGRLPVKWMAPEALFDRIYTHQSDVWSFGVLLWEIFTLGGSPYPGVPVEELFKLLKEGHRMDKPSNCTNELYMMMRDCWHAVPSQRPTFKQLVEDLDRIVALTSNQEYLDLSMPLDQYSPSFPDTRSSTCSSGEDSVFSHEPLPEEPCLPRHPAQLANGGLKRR
- test_method_notes: Kinase binding assay (Kd), FGFR1
- experimental_context: 11-point 3-fold dilution, qPCR readout
- Description: Kinase-tagged T7 phage strains were prepared in an E. coli host derived from the BL21 strain. E. coli were grown to log-phase and infected with T7 phage and incubated with shaking at 32° C. until lysis. The lysates were centrifuged and filtered to remove cell debris. […] Test compounds were prepared as 111X stocks in 100% DMSO. Kds were determined using an 11-point 3-fold compound dilution series with three DMSO control points. […] The kinase concentration in the eluates was measured by qPCR. […]
readout_kind: Kd (nM)

Here are 3 compounds together with their reported answers.
- compound: "CCOc1cc(N=S(C)(C)=O)ccc1Nc1ncc(C)c(-c2c[nH]c3c(C)cccc23)n1 [Example 9]"
  Kd (nM): 350
- compound: "N=S1(=O)CCN(c2ccc(Nc3ncc(Cl)c(-c4c[nH]c5ccccc45)n3)cc2)CC1 [Example 53]"
  Kd (nM): 5
- compound: "CC(C)COc1cc(N=S(C)(C)=O)ccc1Nc1ncc(Cl)c(-c2c[nH]c3ccccc23)n1 [Example 4]"
  Kd (nM): 21000

(1) C=CC(=O)Nc1cccc2c1ccn2-c1nc(Nc2ccc(N=S(C)(C)=O)cc2)ncc1Cl [Example 76]
(2) CS(C)(=O)=Nc1ccc(Nc2ncc(Cl)c(-n3ccc4cc(NC(=O)C5CC5)ccc43)n2)cc1 [Example 80]
(3) N=S(=O)(c1ccc(Nc2ncc(Cl)c(-c3c[nH]c4ccccc34)n2)cc1)C1CC1 (centres unmarked) [Example 47]
IN: Rank ascending by Kd. Sort the labels as requested; that list is your answer.
OUT: 3, 1, 2

(1) CS(C)(=O)=Nc1ccc(Nc2ncc(Cl)c(-n3ncc4cc(N)ccc43)n2)cc1 [Example 87]
(2) C=CC(=O)Nc1ccc2c(c1)c(C)cn2-c1nc(Nc2ccc(N=S(C)(C)=O)c(OC)c2)ncc1Cl [Example 64]
IN: Select one: 1 or 2 . Criterion: greater recorded Kd. Answer format: the label of the selected item.
OUT: 1

* * *

- assayed_system: UniProtKB P22455
- Sequence (P22455 22-802): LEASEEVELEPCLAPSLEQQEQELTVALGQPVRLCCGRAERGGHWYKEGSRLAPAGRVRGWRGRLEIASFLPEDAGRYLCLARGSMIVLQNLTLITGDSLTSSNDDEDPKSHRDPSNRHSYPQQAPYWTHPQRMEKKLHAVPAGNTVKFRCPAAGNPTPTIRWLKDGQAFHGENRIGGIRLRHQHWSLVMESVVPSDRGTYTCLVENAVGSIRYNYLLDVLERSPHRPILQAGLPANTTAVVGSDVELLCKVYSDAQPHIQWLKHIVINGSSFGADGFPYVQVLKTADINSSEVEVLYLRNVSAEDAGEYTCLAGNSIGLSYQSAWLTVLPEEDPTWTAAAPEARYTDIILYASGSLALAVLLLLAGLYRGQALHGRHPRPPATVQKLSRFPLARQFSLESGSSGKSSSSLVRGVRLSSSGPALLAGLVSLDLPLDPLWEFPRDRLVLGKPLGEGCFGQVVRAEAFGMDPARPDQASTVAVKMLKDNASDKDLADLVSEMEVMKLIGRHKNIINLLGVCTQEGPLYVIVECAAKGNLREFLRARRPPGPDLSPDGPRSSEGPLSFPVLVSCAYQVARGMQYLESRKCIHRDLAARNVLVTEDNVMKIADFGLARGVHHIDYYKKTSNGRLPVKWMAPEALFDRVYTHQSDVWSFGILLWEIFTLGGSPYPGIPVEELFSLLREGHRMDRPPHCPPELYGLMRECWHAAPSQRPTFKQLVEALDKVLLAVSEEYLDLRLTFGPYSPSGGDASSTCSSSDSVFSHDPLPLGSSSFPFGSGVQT
pKd: −log10 of the molar value.
readout_kind: pKd

Here are 3 compounds together with their reported answers.
- compound: "C=CC(=O)Nc1ccc2c(-c3nc(Nc4ccc(N=S(C)(C)=O)cc4)ncc3Cl)cn(C)c2c1"
  pKd: 6.64
- compound: "Cc1cnc(Nc2ccc(N=S(C)(C)=O)cc2)nc1-c1c[nH]c2ccccc12"
  pKd: 7.24
- compound: "Cc1ccc2c(-c3nc(Nc4ccc(N=S(C)(C)=O)cc4)ncc3C)c[nH]c2c1"
  pKd: 6.54

(1) CS(C)(=O)=Nc1ccc(Nc2ncc(Cl)c(-c3c[nH]c4ccccc34)n2)cc1
(2) Cc1cnc(Nc2ccc(N=S(C)(C)=O)c(OCCN3CCOCC3)c2)nc1-c1c[nH]c2ccccc12
IN: Between item 1 and item 2 , which reported pKd is smaller? Answer format: the label of the selected item.
OUT: 1

* * *

- Test system: KG-1 cells (Acute Myeloid Leukemia, FGFR1OP2-FGFR1 fusion)
- test_method_notes: Cancer cell line cell viability assay, KG-1
- Assay type: cell-based
- experimental_context: Homo sapiens, 72 hours, Cell Titer-Glo 2.0, read-out: Cancer Cell Viability Assays KG1 (IC50 nM)
readout_kind: IC50 (nM)

Here are 5 compounds together with their reported answers.
- compound: "C=CC(=O)Nc1ccc2c(ccn2-c2nc(Nc3ccc(N=S(C)(C)=O)cc3)ncc2Cl)c1 [Example 66]"
  assayed_system: "KG-1 cells (Acute Myeloid Leukemia, FGFR1OP2-FGFR1 fusion)"
  IC50 / nM: 20
- compound: "C=CC(=O)Nc1ccc2c(c1)c(C)cn2-c1nc(Nc2ccc(N=S(C)(C)=O)c(F)c2)ncc1C#N [Example 62]"
  assayed_system: "KG-1 cells (Acute Myeloid Leukemia, FGFR1OP2-FGFR1 fusion)"
  IC50 / nM: 17
- compound: "C=CC(=O)Nc1ccc2c(ccn2-c2nc(Nc3ccc(S(C)(=N)=O)cc3)ncc2Cl)c1 (centres unmarked) [Example 70]"
  assayed_system: "KG-1 cells (Acute Myeloid Leukemia, FGFR1OP2-FGFR1 fusion)"
  IC50 / nM: 9
- compound: "C=CC(=O)Nc1ccc2c(-c3nc(Nc4ccc(N=S(C)(C)=O)cc4)ncc3Cl)cn(C)c2c1 [Example 92]"
  assayed_system: "KG-1 cells (Acute Myeloid Leukemia, FGFR1OP2-FGFR1 fusion)"
  IC50 / nM: 5
- compound: "C=CC(=O)Nc1ccc2c(c1)c(C)cn2-c1nc(Nc2ccc(N=S(C)(C)=O)cc2)ncc1Cl [Example 61]"
  assayed_system: "KG-1 cells (Acute Myeloid Leukemia, FGFR1OP2-FGFR1 fusion)"
  IC50 / nM: 6

(a) C=CC(=O)Nc1ccc2c(c1)c(C)cn2-c1nc(Nc2ccc(N=S(C)(C)=O)c(OC)c2)ncc1Cl [Example 64]
(b) C=CC(=O)Nc1ccc2c(c1)c(C)cn2-c1nc(Nc2ccc(N=S(C)(C)=O)c(F)c2)ncc1Cl [Example 60]
IN: Between item a and item b , which reported IC50 is smaller? Answer format: the label of the selected item.
OUT: a

* * *

- assayed_system: FGFR3 (Homo sapiens, UniProt P22607)
- Construct: made in house; host or cells: E. coli host derived from BL21, infected with T7 phage
- Sequence (P22607 23-806): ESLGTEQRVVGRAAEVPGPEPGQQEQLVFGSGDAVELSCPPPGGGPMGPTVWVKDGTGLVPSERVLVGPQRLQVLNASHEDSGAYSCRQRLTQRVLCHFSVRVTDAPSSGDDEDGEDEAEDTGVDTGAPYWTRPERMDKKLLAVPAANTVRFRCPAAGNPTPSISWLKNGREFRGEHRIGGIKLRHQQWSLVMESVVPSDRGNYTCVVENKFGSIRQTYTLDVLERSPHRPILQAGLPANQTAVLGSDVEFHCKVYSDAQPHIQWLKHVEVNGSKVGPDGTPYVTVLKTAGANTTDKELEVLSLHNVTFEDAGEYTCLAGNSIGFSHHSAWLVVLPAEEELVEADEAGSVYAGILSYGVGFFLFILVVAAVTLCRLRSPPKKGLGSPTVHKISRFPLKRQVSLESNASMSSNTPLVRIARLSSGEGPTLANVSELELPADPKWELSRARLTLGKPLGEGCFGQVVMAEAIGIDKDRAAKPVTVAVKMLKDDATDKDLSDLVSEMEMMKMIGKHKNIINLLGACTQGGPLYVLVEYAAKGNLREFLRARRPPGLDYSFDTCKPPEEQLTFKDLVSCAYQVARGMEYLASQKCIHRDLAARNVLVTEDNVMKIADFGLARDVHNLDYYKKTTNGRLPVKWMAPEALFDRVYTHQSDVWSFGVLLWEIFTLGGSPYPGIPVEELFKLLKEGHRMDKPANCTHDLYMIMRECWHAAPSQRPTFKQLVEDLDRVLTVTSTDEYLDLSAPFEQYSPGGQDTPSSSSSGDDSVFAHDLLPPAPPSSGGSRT
- test_method_notes: Kinase binding assay (Kd), FGFR3
- experimental_context: 11-point 3-fold dilution, qPCR readout
readout_kind: Kd (nM)

Here are 3 molecules together with their reported answers.
- molecule: "CN(C)C/C=C/C(=O)Nc1ccc2c(ccn2-c2nc(Nc3ccc(N=S(C)(C)=O)cc3)ncc2Cl)c1"
  units_label: "nM"
  Kd: 62
- molecule: "CS(C)(=O)=Nc1ccc(Nc2nccc(-n3ccc4ccccc43)n2)c(N)c1"
  units_label: "nM"
  Kd: 20000
- molecule: "CN1CCS(=O)(=Nc2ccc(Nc3ncc(Cl)c(-c4c[nH]c5ccccc45)n3)cc2)CC1"
  units_label: "nM"
  Kd: 23

(P) CCOc1cc(N=S(C)(C)=O)ccc1Nc1ncc(Cl)c(-c2c[nH]c3ccccc23)n1
(Q) CS(C)(=O)=Nc1ccc(Nc2cc(-n3ccc4ccccc43)ncn2)cc1
(R) CS(=N)(=O)c1ccc(Nc2ncc(Cl)c(-c3c[nH]c4ccccc34)n2)cc1 (stereo not shown)
IN: Rank ascending by Kd. Sort the labels as requested; that list is your answer.
OUT: R, P, Q
(R: 24 nM, P: 430 nM, Q: 18000 nM)

(1) CCC(=O)Nc1cccc2c1ccn2-c1nc(Nc2ccc(N3CCS(=N)(=O)CC3)cc2)ncc1Cl
(2) CS(C)(=O)=Nc1ccc(Nc2nccc(-n3ccc4ccccc43)n2)cc1
(3) C=CC(=O)Nc1ccc2c(ccn2-c2nc(Nc3ccc(N=S(C)(C)=O)cc3)ncc2Cl)c1
(4) COc1cc(N=S2(=O)CCN(C)CC2)ccc1Nc1ncc(Cl)c(-c2c[nH]c3ccccc23)n1
(5) Cc1cnc(Nc2ccc(N3CCS(=N)(=O)CC3)cc2)nc1-c1c[nH]c2ccccc12
IN: Kindly order the items shown according to Kd, from the highest value down. Sort the labels as requested; that list is your answer.
OUT: 2, 1, 4, 3, 5

(a) CS(C)(=O)=Nc1ccc(Nc2ncc(F)c(-c3c[nH]c4ccccc34)n2)cc1
(b) CCN1CCS(=O)(=Nc2ccc(Nc3ncc(Cl)c(-c4c[nH]c5ccccc45)n3)c(OC)c2)CC1
IN: Between item a and item b , which reported Kd is smaller? Answer format: the label of the selected item.
OUT: a
(a: 22 nM, b: 57 nM)

* * *

- assayed_system: FGFR1 (Homo sapiens, UniProt P11362)
- Construct: made in house; host or cells: E. coli host derived from BL21, infected with T7 phage
- test_method_notes: Kinase binding assay (Kd), FGFR1
- experimental_context: 11-point 3-fold dilution, qPCR readout
readout_kind: Kd (nM)

Here are 2 molecules together with their reported answers.
- molecule: "COc1cc(S(C)(=N)=O)ccc1Nc1nccc(-n2ccc3ccccc32)n1 (centres unmarked)"
  units_label: "nM"
  Kd: 5000
- molecule: "Cc1cnc(Nc2ccc(N=S3(=O)CCN(C)CC3)cc2)nc1-c1c[nH]c2ccccc12"
  units_label: "nM"
  Kd: 8

(1) COc1cc(N2CCS(=N)(=O)CC2)ccc1Nc1nccc(-n2ccc3ccccc32)n1
(2) COc1cc(N=S(C)(C)=O)ccc1Nc1ncc(Cl)c(-c2c[nH]c3ccccc23)n1
(3) Cc1ccc2c(-c3nc(Nc4ccc(N5CCS(=N)(=O)CC5)cc4)ncc3C)c[nH]c2c1
(4) Cc1[nH]c2ccccc2c1-c1nc(Nc2ccc(S(C)(=N)=O)cc2)ncc1Cl (centres unmarked)
IN: Rank ascending by Kd. Sort the labels as requested; that list is your answer.
OUT: 3, 4, 2, 1
(3: 14 nM, 4: 64 nM, 2: 140 nM, 1: 7800 nM)

(P) CN(C)C/C=C/C(=O)Nc1ccc2c(ccn2-c2nc(Nc3ccc(N=S(C)(C)=O)cc3)ncc2Cl)c1
(Q) C=CC(=O)Nc1ccc2c(ccn2-c2nc(Nc3ccc(S(C)(=N)=O)cc3OC)ncc2C)c1 (centres unmarked)
IN: Select one: P or Q . Criterion: greater recorded Kd. Answer format: the label of the selected item.
OUT: Q
(Q: 5000 nM, P: 130 nM)

All figures here come from patent US20230115945A1.
